Recorded viability, T/C, one value per entry.
Test system: 931267-113-T-J1-PDC KRAS spheroid with HUVEC/MSC, viability
Test: Anticancer human tumor 931267-113-T-J1-PDC patient-derived colon adenocarcinoma cell line growth inhibition [KRAS2]
Details: second compound 10 µM; first compound 0.0316 µM; hits give low values

compound: Cn1nccc1Nc1nccc(-c2cc3c(s2)C(C)(C)N(CCN2CCOCC2)C3=O)n1 + C=CC(=O)N1CCN(c2nc(=O)n(-c3c(C)ccnc3C(C)C)c3nc(-c4c(O)cccc4F)c(F)cc23)C(C)C1
test target: 931267-113-T-J1-PDC KRAS spheroid with HUVEC/MSC, viability
viability, T/C [%]: 91.2
//
compound: O=C(c1cc(Cc2n[nH]c(=O)c3ccccc23)ccc1F)N1CCN(C(=O)C2CC2)CC1 + C=CC(=O)N1CCN(c2nc(=O)n(-c3c(C)ccnc3C(C)C)c3nc(-c4c(O)cccc4F)c(F)cc23)C(C)C1
test target: 931267-113-T-J1-PDC KRAS spheroid with HUVEC/MSC, viability
viability, T/C [%]: 89.2
//
compound: CCN1CCN(Cc2ccc(Nc3ncc(F)c(-c4cc(F)c5nc(C)n(C(C)C)c5c4)n3)nc2)CC1 + C=CC(=O)N1CCN(c2nc(=O)n(-c3c(C)ccnc3C(C)C)c3nc(-c4c(O)cccc4F)c(F)cc23)C(C)C1
test target: 931267-113-T-J1-PDC KRAS spheroid with HUVEC/MSC, viability
viability, T/C [%]: 90.2

---

Tested on: 931267-113-T-J1-PDC KRAS spheroid with HUVEC/MSC, viability
Test: Anticancer human tumor 931267-113-T-J1-PDC cell line growth inhibition [KRAS2]; active = viability on the fitted dose curve at most 10% of control; inactive = the rest;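 also: compound exposure lasted 7 days before the readout; 100% = DMSO vehicle control viability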
Settings: second compound 3.16 µM; first compound 0.0316 µM
Outcomes: 1 (active), -1 (inactive)

molecule: CC(C)NCC(C(=O)N1CCN(c2ncnc3c2C(C)CC3O)CC1)c1ccc(Cl)cc1 (stereo not given) + C=CC(=O)N1CCN(c2nc(=O)n(-c3c(C)ccnc3C(C)C)c3nc(-c4c(O)cccc4F)c(F)cc23)C(C)C1
test target: 931267-113-T-J1-PDC KRAS spheroid with HUVEC/MSC, viability
class name: -1
//
molecule: CC(C)n1nc(-c2ccc3oc(N)nc3c2)c2c(N)ncnc21 + C=CC(=O)N1CCN(c2nc(=O)n(-c3c(C)ccnc3C(C)C)c3nc(-c4c(O)cccc4F)c(F)cc23)C(C)C1
test target: 931267-113-T-J1-PDC KRAS spheroid with HUVEC/MSC, viability
class name: -1
//
molecule: CC(C)n1nc(-c2ccc3oc(N)nc3c2)c2c(N)ncnc21 + COc1cc2nc(C)nc(NC(C)c3cc(N)cc(C(F)(F)F)c3)c2cc1OC1CCOC1
test target: 931267-113-T-J1-PDC KRAS spheroid with HUVEC/MSC, viability
class name: -1
//
molecule: COC(=O)c1ccc2c(C(=Nc3ccc(N(C)C(=O)CN4CCN(C)CC4)cc3)c3ccccc3)c(O)[nH]c2c1 + C=CC(=O)N1CCN(c2nc(OCC3CCCN3C)nc3c2CCN(c2cccc4cccc(C)c24)C3)CC1CC#N
test target: 931267-113-T-J1-PDC KRAS spheroid with HUVEC/MSC, viability
class name: 1
//
molecule: COc1cc(Nc2ncc3c(n2)-c2ccc(Cl)cc2C(c2c(F)cccc2OC)=NC3)ccc1C(=O)O + C=CC(=O)N1CCN(c2nc(=O)n(-c3c(C)ccnc3C(C)C)c3nc(-c4c(O)cccc4F)c(F)cc23)C(C)C1
test target: 931267-113-T-J1-PDC KRAS spheroid with HUVEC/MSC, viability
class name: -1

---

Test system: 931267-113-T-J1-PDC KRAS spheroid with HUVEC/MSC, viability
Assay: Anticancer human tumor 931267-113-T-J1-PDC cell line growth inhibition [KRAS2];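 also: compound exposure lasted 7 days before the readout; 100% = DMSO vehicle control viability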
Settings: second compound 0.316 µM; first compound 1 µM; hits give low values
Labelling field: enter YES if recorded viability, T/C is less than 70%. Enter NO if it equals or exceeds that cut-off.

molecule: COc1cc2nccc(Oc3ccc(NC(=O)C4(C(=O)Nc5ccc(F)cc5)CC4)cc3)c2cc1OC + COc1cc2nc(C)nc(NC(C)c3cc(N)cc(C(F)(F)F)c3)c2cc1OC1CCOC1
class name: NO
//
molecule: CCN1CCN(Cc2ccc(Nc3ncc(F)c(-c4cc(F)c5nc(C)n(C(C)C)c5c4)n3)nc2)CC1 + CNCc1ccccc1-c1csc(C(C)Nc2nc(C)nc3cc(OC)c(OC)cc23)c1
class name: YES
//
molecule: CC(=O)OC12COC1CC(O)C1(C)C(=O)C(O)C3=C(C)C(OC(=O)C(O)C(NC(=O)OC(C)(C)C)c4ccccc4)CC(O)(C(OC(=O)c4ccccc4)C21)C3(C)C (configuration not stated) + C=CC(=O)N1CCN(c2nc(OCC3CCCN3C)nc3c2CCN(c2cccc4cccc(C)c24)C3)CC1CC#N
class name: NO
//
molecule: CCN1CCN(Cc2ccc(Nc3ncc(F)c(-c4cc(F)c5nc(C)n(C(C)C)c5c4)n3)nc2)CC1 + C=CC(=O)N1CCN(c2nc(=O)n(-c3c(C)ccnc3C(C)C)c3nc(-c4c(O)cccc4F)c(F)cc23)C(C)C1
class name: YES
//
molecule: CC1COCCN1c1cc(-c2ccnn2C)c2ccnc(-c3ccn[nH]3)c2n1 (configuration not stated) + COc1cc2nc(C)nc(NC(C)c3cc(N)cc(C(F)(F)F)c3)c2cc1OC1CCOC1
class name: YES

---

System: 931267-113-T-J1-PDC KRAS spheroid with HUVEC/MSC, viability
Experiment: Anticancer human tumor 931267-113-T-J1-PDC cell line growth inhibition [KRAS2];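 also: compound exposure lasted 7 days before the readout; 100% = DMSO vehicle control viability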
Settings: second compound 1 µM; first compound 0.1 µM; hits give low values
Labelling field: enter true (1) if recorded viability, T/C is less than 90%. Enter false (0) if it equals or exceeds that cut-off.

compound: Cn1ncnc1[C@H]1c2n[nH]c(=O)c3cc(F)cc(c23)N[C@@H]1c1ccc(F)cc1 + C=CC(=O)N1CCN(c2nc(OCC3CCCN3C)nc3c2CCN(c2cccc4cccc(C)c24)C3)CC1CC#N
class name: true (1)
--
compound: O=C(c1cc(Cc2n[nH]c(=O)c3ccccc23)ccc1F)N1CCN(C(=O)C2CC2)CC1 + C=CC(=O)N1CCN(c2nc(=O)n(-c3c(C)ccnc3C(C)C)c3nc(-c4c(O)cccc4F)c(F)cc23)C(C)C1
class name: false (0)
--
compound: CC1(C)CCC(CN2CCN(c3ccc(C(=O)NS(=O)(=O)c4ccc(NCC5CCOCC5)c([N+](=O)[O-])c4)c(Oc4cnc5[nH]ccc5c4)c3)CC2)=C(c2ccc(Cl)cc2)C1 + C=CC(=O)N1CCN(c2nc(=O)n(-c3c(C)ccnc3C(C)C)c3nc(-c4c(O)cccc4F)c(F)cc23)C(C)C1
class name: false (0)
--
compound: CC1(C)CCC(CN2CCN(c3ccc(C(=O)NS(=O)(=O)c4ccc(NCC5CCOCC5)c([N+](=O)[O-])c4)c(Oc4cnc5[nH]ccc5c4)c3)CC2)=C(c2ccc(Cl)cc2)C1 + COc1cc2nc(C)nc(NC(C)c3cc(N)cc(C(F)(F)F)c3)c2cc1OC1CCOC1
class name: false (0)
--
compound: O=C(c1cc(Cc2n[nH]c(=O)c3ccccc23)ccc1F)N1CCN(C(=O)C2CC2)CC1 + CNCc1ccccc1-c1csc(C(C)Nc2nc(C)nc3cc(OC)c(OC)cc23)c1
class name: false (0)
--
compound: CN(C)C/C=C/C(=O)Nc1cc2c(Nc3ccc(F)c(Cl)c3)ncnc2cc1O[C@H]1CCOC1 + C=CC(=O)N1CCN(c2nc(OCC3CCCN3C)nc3c2CCN(c2cccc4cccc(C)c24)C3)CC1CC#N
class name: true (1)
--
compound: CCN1CCN(Cc2ccc(Nc3ncc(F)c(-c4cc(F)c5nc(C)n(C(C)C)c5c4)n3)nc2)CC1 + C=CC(=O)N1CCN(c2nc(OCC3CCCN3C)nc3c2CCN(c2cccc4cccc(C)c24)C3)CC1CC#N
class name: true (1)
--
compound: CC(C)NCC(C(=O)N1CCN(c2ncnc3c2C(C)CC3O)CC1)c1ccc(Cl)cc1 (configuration not stated) + C=CC(=O)N1CCN(c2nc(OCC3CCCN3C)nc3c2CCN(c2cccc4cccc(C)c24)C3)CC1CC#N
class name: true (1)
--
compound: CC(=O)OC12COC1CC(O)C1(C)C(=O)C(O)C3=C(C)C(OC(=O)C(O)C(NC(=O)OC(C)(C)C)c4ccccc4)CC(O)(C(OC(=O)c4ccccc4)C21)C3(C)C (configuration not stated) + CC1OCC2(CCN(c3cnc(Sc4ccnc(N)c4Cl)c(N)n3)CC2)C1N
class name: false (0)
--
compound: COc1cc(Nc2ncc3c(n2)-c2ccc(Cl)cc2C(c2c(F)cccc2OC)=NC3)ccc1C(=O)O + CNCc1ccccc1-c1csc(C(C)Nc2nc(C)nc3cc(OC)c(OC)cc23)c1
class name: true (1)
--
compound: CC(C)NCC(C(=O)N1CCN(c2ncnc3c2C(C)CC3O)CC1)c1ccc(Cl)cc1 (configuration not stated) + COc1cc2nc(C)nc(NC(C)c3cc(N)cc(C(F)(F)F)c3)c2cc1OC1CCOC1
class name: true (1)

All figures here come from PubChem BioAssay AID1963863.
